Origin of values: the supplement of paper PMC10307832

system: NCI-H522; assay: relative viability (nuclei count vs DMSO), 5 days (fraction); higher = more cells survive; conditions: first compound 0.3162 µM
# relative viability listing for each entry below

COMPOUND	relative viability
NC(=O)Nc1cc(-c2cccc(F)c2)sc1C(=O)N[C@H]1CCCNC1 [AZD7762] + Nc1ncn([C@H]2C[C@H](O)[C@@H](CO)O2)c(=O)n1 [Decitabine] (partner 2 µM)	0.689
NC(=O)Nc1cc(-c2cccc(F)c2)sc1C(=O)N[C@H]1CCCNC1 [AZD7762] + O=C(c1cc(Cc2n[nH]c(=O)c3ccccc23)ccc1F)N1CCN(C(=O)C2CC2)CC1 [Olaparib] (partner 8 µM)	0.59
NC(=O)Nc1cc(-c2cccc(F)c2)sc1C(=O)N[C@H]1CCCNC1 [AZD7762] + Cc1nc(Nc2ncc(C(=O)Nc3c(C)cccc3Cl)s2)cc(N2CCN(CCO)CC2)n1 [Dasatinib] (partner 0.075 µM)	0.933
NC(=O)Nc1cc(-c2cccc(F)c2)sc1C(=O)N[C@H]1CCCNC1 [AZD7762] + Cc1cc(Nc2cc(N3CCN(C)CC3)nc(Sc3ccc(NC(=O)C4CC4)cc3)n2)n[nH]1 [Tozasertib] (partner 0.1 µM)	0.566

---

# relative viability listing for each entry below
tested on: NCI-H727; assay: relative viability (nuclei count vs DMSO), 5 days (fraction); higher = more cells survive; details: first compound 0.253 µM

COMPOUND	relative viability
Oc1nc(-c2ccc(C(F)(F)F)cc2)nc2c1CSCC2 [XAV939] + COc1cccc2cc(-c3nc([C@H]4CC[C@H](C(=O)O)CC4)n4ncnc(N)c34)[nH]c12 [OSI-027] (partner 0.5 µM)	0.495
C=C1C(=O)O[C@@H](CCCCCCCC)[C@@H]1C(=O)O [C-75] + CC(=O)c1c(C)c2cnc(Nc3ccc(N4CCNCC4)cn3)nc2n(C2CCCC2)c1=O [Palbociclib] (partner 0.5 µM)	0.667
C=C1C(=O)O[C@@H](CCCCCCCC)[C@@H]1C(=O)O [C-75] + COc1cc2c(Oc3ccc(NC(=O)C4(C(=O)Nc5ccc(F)cc5)CC4)cc3F)ccnc2cc1OCCCN1CCOCC1 [Foretinib] (partner 0.25 µM)	1.33
Oc1nc(-c2ccc(C(F)(F)F)cc2)nc2c1CSCC2 [XAV939] + Cc1cc(Nc2cc(N3CCN(C)CC3)nc(Sc3ccc(NC(=O)C4CC4)cc3)n2)n[nH]1 [Tozasertib] (partner 0.1 µM)	0.543
Oc1nc(-c2ccc(C(F)(F)F)cc2)nc2c1CSCC2 [XAV939] + N=C(N)NC(=N)NCCc1ccccc1 [Phenformin] (partner 250 µM)	0.353
C=C1C(=O)O[C@@H](CCCCCCCC)[C@@H]1C(=O)O [C-75] + CC(=O)Nc1cccc(-n2c(=O)n(C3CC3)c(=O)c3c(Nc4ccc(I)cc4F)n(C)c(=O)c(C)c32)c1 [Trametinib] (partner 0.02 µM)	0.378
Oc1nc(-c2ccc(C(F)(F)F)cc2)nc2c1CSCC2 [XAV939] + C[C@@H](Oc1cc(-c2cnn(C3CCNCC3)c2)cnc1N)c1c(Cl)ccc(F)c1Cl [Crizotinib] (partner 1 µM)	0.566
C=C1C(=O)O[C@@H](CCCCCCCC)[C@@H]1C(=O)O [C-75] + O=C(c1cc(Cc2n[nH]c(=O)c3ccccc23)ccc1F)N1CCN(C(=O)C2CC2)CC1 [Olaparib] (partner 8 µM)	0.865

---

system: NCI-H23; assay: relative viability (nuclei count vs DMSO), 5 days (fraction); higher = more cells survive; settings: first compound 0.05 µM
# relative viability listing for each entry below
MEASURED PARAMETER: relative viability

COMPOUND	ENDPOINT RESULT
CC1(C)CCC(c2ccc(Cl)cc2)=C(CN2CCN(c3ccc(C(=O)NS(=O)(=O)c4ccc(N[C@H](CCN5CCOCC5)CSc5ccccc5)c(S(=O)(=O)C(F)(F)F)c4)cc3)CC2)C1 [Navitoclax] + CC(=O)c1c(C)c2cnc(Nc3ccc(N4CCNCC4)cn3)nc2n(C2CCCC2)c1=O [Palbociclib] (partner 0.5 µM)	0.496
CC1(C)CCC(c2ccc(Cl)cc2)=C(CN2CCN(c3ccc(C(=O)NS(=O)(=O)c4ccc(N[C@H](CCN5CCOCC5)CSc5ccccc5)c(S(=O)(=O)C(F)(F)F)c4)cc3)CC2)C1 [Navitoclax] + CCNC(=O)c1noc(-c2cc(C(C)C)c(O)cc2O)c1-c1ccc(CN2CCOCC2)cc1 [Luminespib] (partner 0.01 µM)	0.224
CC1(C)CCC(c2ccc(Cl)cc2)=C(CN2CCN(c3ccc(C(=O)NS(=O)(=O)c4ccc(N[C@H](CCN5CCOCC5)CSc5ccccc5)c(S(=O)(=O)C(F)(F)F)c4)cc3)CC2)C1 [Navitoclax] + C[C@@H](Oc1cc(-c2cnn(C3CCNCC3)c2)cnc1N)c1c(Cl)ccc(F)c1Cl [Crizotinib] (partner 1 µM)	0.516
CC1(C)CCC(c2ccc(Cl)cc2)=C(CN2CCN(c3ccc(C(=O)NS(=O)(=O)c4ccc(N[C@H](CCN5CCOCC5)CSc5ccccc5)c(S(=O)(=O)C(F)(F)F)c4)cc3)CC2)C1 [Navitoclax] + N=C(N)NC(=N)NCCc1ccccc1 [Phenformin] (partner 250 µM)	0.662

---

test system: HOP-62; experiment: relative viability (nuclei count vs DMSO), 5 days (fraction); higher = more cells survive; conditions: first compound 0.08 µM

COMPOUND	relative viability
Oc1nc(-c2ccc(C(F)(F)F)cc2)nc2c1CSCC2 [XAV939] + CC(C)C[C@H](NC(=O)[C@H](Cc1ccccc1)NC(=O)c1cnccn1)B(O)O [Bortezomib] (partner 0.002 µM)	1.19
C=C1C(=O)O[C@@H](CCCCCCCC)[C@@H]1C(=O)O [C-75] + Nc1nc2[nH]cc(CCc3ccc(C(=O)N[C@@H](CCC(=O)O)C(=O)O)cc3)c2c(=O)[nH]1 [Pemetrexed] (partner 0.2 µM)	0.365
C=C1C(=O)O[C@@H](CCCCCCCC)[C@@H]1C(=O)O [C-75] + Cc1nc(Nc2ncc(C(=O)Nc3c(C)cccc3Cl)s2)cc(N2CCN(CCO)CC2)n1 [Dasatinib] (partner 0.075 µM)	0.642

---

tested on: CAL-12T; experiment: relative viability (nuclei count vs DMSO), 5 days (fraction); higher = more cells survive; settings: first compound 0.1265 µM
Hi! Could you tag entries with relative viability below 0.7 as True, and those at or above as False? Much appreciated.

COMPOUND	LABEL
O=C(O)c1ccc(-c2c[nH]c3ncc(-c4ccccc4)cc23)cc1C1CCCC1 + C[C@@H](Oc1cc(-c2cnn(C3CCNCC3)c2)cnc1N)c1c(Cl)ccc(F)c1Cl [Crizotinib] (partner 1 µM)	False
O=C(O)c1ccc(-c2c[nH]c3ncc(-c4ccccc4)cc23)cc1C1CCCC1 + CCNC(=O)c1noc(-c2cc(C(C)C)c(O)cc2O)c1-c1ccc(CN2CCOCC2)cc1 [Luminespib] (partner 0.01 µM)	True
O=C(O)c1ccc(-c2c[nH]c3ncc(-c4ccccc4)cc23)cc1C1CCCC1 + N=C(N)NC(=N)NCCc1ccccc1 [Phenformin] (partner 250 µM)	True
O=C(O)c1ccc(-c2c[nH]c3ncc(-c4ccccc4)cc23)cc1C1CCCC1 + COc1cc2c(Oc3ccc(NC(=O)C4(C(=O)Nc5ccc(F)cc5)CC4)cc3F)ccnc2cc1OCCCN1CCOCC1 [Foretinib] (partner 0.25 µM)	False
O=C(O)c1ccc(-c2c[nH]c3ncc(-c4ccccc4)cc23)cc1C1CCCC1 + CC(C)C[C@H](NC(=O)[C@H](Cc1ccccc1)NC(=O)c1cnccn1)B(O)O [Bortezomib] (partner 0.002 µM)	False
O=C(O)c1ccc(-c2c[nH]c3ncc(-c4ccccc4)cc23)cc1C1CCCC1 + CC1(C)CCC(c2ccc(Cl)cc2)=C(CN2CCN(c3ccc(C(=O)NS(=O)(=O)c4ccc(N[C@H](CCN5CCOCC5)CSc5ccccc5)c(S(=O)(=O)C(F)(F)F)c4)cc3)CC2)C1 [Navitoclax] (partner 0.5 µM)	False
O=C(O)c1ccc(-c2c[nH]c3ncc(-c4ccccc4)cc23)cc1C1CCCC1 + Cc1cc(Nc2cc(N3CCN(C)CC3)nc(Sc3ccc(NC(=O)C4CC4)cc3)n2)n[nH]1 [Tozasertib] (partner 0.1 µM)	True
O=C(O)c1ccc(-c2c[nH]c3ncc(-c4ccccc4)cc23)cc1C1CCCC1 + CC(=O)Nc1cccc(-n2c(=O)n(C3CC3)c(=O)c3c(Nc4ccc(I)cc4F)n(C)c(=O)c(C)c32)c1 [Trametinib] (partner 0.02 µM)	True

---

# relative viability listing for each entry below
system: ChaGo-K-1; assay: relative viability (nuclei count vs DMSO), 5 days (fraction); higher = more cells survive; details: first compound 0.253 µM

COMPOUND	relative viability
C=C1C(=O)O[C@@H](CCCCCCCC)[C@@H]1C(=O)O [C-75] + CC1(C)CCC(c2ccc(Cl)cc2)=C(CN2CCN(c3ccc(C(=O)NS(=O)(=O)c4ccc(N[C@H](CCN5CCOCC5)CSc5ccccc5)c(S(=O)(=O)C(F)(F)F)c4)cc3)CC2)C1 [Navitoclax] (partner 0.5 µM)	0.953
C=C1C(=O)O[C@@H](CCCCCCCC)[C@@H]1C(=O)O [C-75] + CS(=O)(=O)N1CCN(Cc2cc3nc(-c4cccc5[nH]ncc45)nc(N4CCOCC4)c3s2)CC1 [Pictilisib] (partner 1 µM)	0.749
C=C1C(=O)O[C@@H](CCCCCCCC)[C@@H]1C(=O)O [C-75] + CC(C)C[C@H](NC(=O)[C@H](Cc1ccccc1)NC(=O)c1cnccn1)B(O)O [Bortezomib] (partner 0.002 µM)	0.944
